Source: ChEMBL document CHEMBL1124121

Species on record: Rattus norvegicus
Assay: Effect on 5-HTP accumulation in hemispheres of rat.
Assay type: functional
MEASURED METRIC: ED50 (µmol/kg)
Write the answer as a number in µmol/kg, unit excluded.

Previously resolved entries follow.
q: Data request, read-out ED50, for CCCN(CCC)C1CCc2ccc(O)c(O)c2C1 (centres undefined)
a: 1.05

q: Which ED50 is reported for this compound? CCCN(CCC)C1CCc2cccc(O)c2C1 (centres undefined)
a: 0.068

q: Request the reported ED50 associated with CCCN(CCC)C1CCc2cccc(OC)c2C1 (centres undefined)
a: 0.23

Here is another compound to look at.
q: Request the reported ED50 associated with CCCN(CCC)C1CCc2ccc(O)c(OC)c2C1 (centres undefined)
a: 1.62

----------
Species on record: Rattus norvegicus
Assay: Effect on 5-HTP accumulation in striatum of rat.
Format: functional
Property: ED50; scope: individual compounds
Report only the number, with the unit µmol/kg understood.

Previously resolved entries follow.
q: # query: ED50 of entry CCCN(CCC)C1CCc2ccc(O)c(O)c2C1 (centres undefined)
a: 1.39

q: Can you look up the measured ED50 of CCCN(CCC)C1CCc2ccc(O)c(OC)c2C1 (centres undefined) for me?
a: 2.06

q: Can you look up the measured ED50 of CCCN(CCC)C1CCc2cccc(O)c2C1 (centres undefined) for me?
a: 0.045

***
q: Quick one: ED50 for CCCN(CCC)C1CCc2cccc(OC)c2C1 (centres undefined) ?
a: 0.29

----------
Species on record: Rattus norvegicus
Assay: Effect on dopamine accumulation in limbic system of rat.
Assay type: functional
MEASURED METRIC: ED50 (µmol/kg)
Answer in µmol/kg, number only, no unit symbol.

Consider the worked cases shown below.
q: Need ED50, item CCCN(CCC)C1CCc2c(cccc2OC)C1 (configuration not stated)
a: 0.013

q: Bench note: what ED50 did `CCCN(CCC)[C@@H]1CCc2ccc(O)cc2C1` show?
a: 0.18

Further cases:
q: Fill blank: measured ED50 of the compound CCCN(CCC)C1CCc2c(ccc(O)c2O)C1 (configuration not stated) is ____.
a: 0.007

q: # get_value(readout='ED50', item= CCCN(CCC)C1CCc2c(O)cccc2C1 (configuration not stated) [5-OH-DPAT] )
a: 0.011

q: So what does the record say about ED50 for CCCN(CCC)C1CCc2ccc(O)c(OC)c2C1 (configuration not stated) ?
a: 0.314

q: Data request, read-out ED50, for CCCN(CCC)C1CCc2ccc(O)c(O)c2C1 (configuration not stated)
a: 0.986

q: // returns reported ED50 for input CCCN(CCC)C1CCc2c(ccc(O)c2OC)C1 (configuration not stated)
a: 0.16
